- System: SRD5A2 (gene 6716)
- Test Name: CCTE_Deisenroth_5AR_NBTE_ratio: CCTE's 5alpha-reductase NanoBRET Target Engagement Assay - Ratio, Deisenroth Lab (AID 2284322)
- Reported Conditions: actives raise or lower the signal
Activity calls are given as the source filed them. Rule for the calls: active = hit-call score of the fitted dose curve at least 0.9, where 1 is the maximum; inactive = score below 0.9.
Tick one outcome: yes (1) for active, no (0) for inactive

Example cases with answers are listed next.
Assay outcome for O=c1c(O)c(-c2ccc(O)c(O)c2)oc2cc(O)cc(O)c12 : what was it?
no (0)

Assay outcome for OC[C@@H](O)[C@@H](O)[C@H](O)[C@H](O)CO : what was it?
no (0)

Assay outcome for C1CCC(SSC2CCCCC2)CC1 : what was it?
no (0)

Assay outcome for CC=Cc1ccc(O)c(OC)c1 : what was it?
no (0)

Continuing:
Assay outcome for Oc1ccc2ccccc2c1N=Nc1ccccc1 : what was it?
no (0)

Assay outcome for COc1cc(-c2nc(NC(=O)c3cc4cc(C)cc(C)c4n3CC(=O)O)sc2CCC2CCCCC2)c(OC)cc1Cl : what was it?
yes (1)

Assay outcome for CCCCCCCCCCC : what was it?
no (0)

Assay outcome for CCCCOC(=O)CCCCCCCCC(=O)OCCCC : what was it?
no (0)

###

- Test Name: CCTE_Shafer_MEA_dev_network_spike_peak: CCTE's Neural Network Formation Assay for Mean Number of Electrodes in Network Spike, Shafer Lab (AID 2284049)
The source made the active and inactive calls. The calls were made as follows: active = hit-call score of the fitted dose curve at least 0.9, where 1 is the maximum; inactive = score below 0.9.
Tick one outcome: y (active), n (inactive)

Example cases with answers are listed next.
Assay outcome for CC(=O)Oc1ccccc1C(=O)O : what was it?
n

Assay outcome for O=c1[nH]cc(F)c(=O)[nH]1 : what was it?
y

Assay outcome for Cc1cc(=O)[nH]c(=S)[nH]1 : what was it?
n

Kindly review the next molecule as well.
Assay outcome for CC(C)c1ccc(C(=O)N=C(N)N)cc1S(C)(=O)=O : what was it?
n

###

- Read-out: flavin-containing dimethylaniline monooxygenases 3 (FMO3), FMO3 (gene 2328)
- Test Name: LTEA_HepaRG_FMO3: Life Technologies and Expression Analysis (LTEA) Assay for flavin-containing dimethylaniline monooxygenases 3 (FMO3) using HepaRG (AID 2283453)
- Reported Conditions: mRNA level, 48 h; actives raise or lower the signal
Active and inactive are the calls of the source. Rule for the calls: active = hit-call score of the fitted dose curve at least 0.9, where 1 is the maximum; inactive = score below 0.9.
Tick one outcome: TRUE = active, FALSE = inactive

Assay outcome for CCOC(=O)CCC(=O)OCC : what was it?
FALSE

Assay outcome for CC(CO)OC(C)CO (configuration not stated) (tested in a mixture with another compound) : what was it?
FALSE

Assay outcome for CC=Cc1ccc(O)c(OC)c1 : what was it?
FALSE

Assay outcome for Cc1ccc(N(C)C)cc1 : what was it?
FALSE

Assay outcome for CCCCCCCCCCCCCO : what was it?
FALSE

Kindly review the next compound as well.
Assay outcome for CCCCCCCCCCO : what was it?
FALSE

###

- Test Name: ATG_GRE_CIS: Attagene CIS-FACTORIAL HepG2 Assay for human Glucocorticoid Response Elements (GRE) (AID 2282947)
- Reported Conditions: HepG2 GRE cis-reporter, Attagene multiplex mRNA; actives raise or lower the signal
Calls of active or inactive are those of the source. Rule for the calls: active = hit-call score of the fitted dose curve at least 0.9, where 1 is the maximum; inactive = score below 0.9.
Tick one outcome: y (active), n (inactive)

Example cases with answers are listed next.
Assay outcome for Cc1ccccc1Cl : what was it?
n

Assay outcome for CCOC(=O)C(C)(C)Oc1ccc(Cl)cc1 : what was it?
n

Kindly review the next compound as well.
Assay outcome for CC(C)c1ccc(C(=O)N=C(N)N)cc1S(C)(=O)=O : what was it?
n
